Biological target: human islet amyloid polypeptide (wt hIAPP) (Homo sapiens, UniProt P10997)
Construct: gene IAPP; 37-residue synthetic peptide, amidated C-terminus, Cys-2/Cys-7 disulfide, monomeric
Assay: Tyr37 fluorescence quenching and native ESI-MS (weak adduct); ThT acceleration of aggregation; no SPR response, no significant NMR CSPs
Format: binding
TEST_READOUT: Kd

* O=C(Nc1ccccc1F)c1cnc(-c2ccccc2)nc1CCNC(=O)C1CCCCC1 | ~280 µM

---

Target: human islet amyloid polypeptide (wt hIAPP) (Homo sapiens, UniProt P10997)
Construct: gene IAPP; 37-residue synthetic peptide, amidated C-terminus, Cys-2/Cys-7 disulfide, monomeric
Sequence (P10997 34-70 limits assumed): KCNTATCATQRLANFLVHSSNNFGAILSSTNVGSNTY
Assay: Tyr37 fluorescence quenching titration; also SPR (Kd […]) and native ESI-MS/CID; known inhibitor used as control
Format: binding
pKd: −log10 of the molar value.
TEST_READOUT: pKd

- O=C(O[C@@H]1Cc2c(O)cc(O)cc2O[C@@H]1c1cc(O)c(O)c(O)c1)c1cc(O)c(O)c(O)c1: 4.89

The reported measurements were obtained from paper PMC8873464.
